Sourced from patent US20240132580A1

Measured koff, listed per entry for reference.
# assayed_target: T1, Biotinylated murine VEGF-164 (Acro Biosystem) (mouse, UniProt Q00731-2 27-190, biotinylated (site not stated))
# T1 construct: Bought protein; also called Mouse VEGF164; mouse VEGFA
# T1 sequence (looked up): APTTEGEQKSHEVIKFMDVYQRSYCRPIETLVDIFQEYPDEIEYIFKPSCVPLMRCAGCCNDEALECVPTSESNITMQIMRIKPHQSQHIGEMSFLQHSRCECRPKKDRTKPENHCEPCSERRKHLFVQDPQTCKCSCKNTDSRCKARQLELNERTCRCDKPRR
# assay_explanation: BLI, biotinylated antigen on streptavidin tips, 1:1 global fit

Field koff (entry 16A6.1 (VHH, E. coli, ATG codon 5' (possible initiator Met), 3' hexahistidine tag; also called clone 16A6.1) VHH: EVQLVESGGGLVQPGGSLRLSCAISGFSLAATDIDWVRQAPGKGLEWVARIFPFSGSTDYTDSVKGRFTISADTSKNTVYLQMNSLRAEDTAVYYCGRSDSYSYNVFLHDPAYTALDYRGQGTLVTVSS ) reads 0.00225 s⁻¹

Field koff (entry 21A1.1 (VHH, Autonomous humanised VH domain (DotBody), from the 16C2.1-based library with heat challenge; E. coli, ATG codon 5' (possible initiator Met), 3' hexahistidine tag; also called DotBody 21A1.1) VHH: EVQLVESGGGLVQPGGSLRLSCAISGFALATTDIDWVRQAPGKGLEWVARIFNPSDFTDYADSVKGRFTISADTSKNTVYLQMNSLRAEDTAVYYCGRPAVYGYNIFLDSPTYDASQYRGQGTLVTVSS ) reads 0.00231 s⁻¹

Field koff (entry 16A2.1 (VHH, E. coli, ATG codon 5' (possible initiator Met), 3' hexahistidine tag; also called anti-VEGF DotBody 16A2.1; clone 16A2.1) VHH: EVQLVESGGGLVQPGGSLRLSCAISGFALAETDIDWVRQAPGKGLEWVARIFSSGGNTDYADSVKGRFTISADTSKNTVYLQMNSLRAEDTAVYYCGRSDSIAYNVILPNSTYTARDYRGQGTLVTVSS ) reads 0.00193 s⁻¹

Field koff (entry 20A2.1 (VHH, Autonomous humanised VH domain (DotBody), from the 16A2.1-based library with heat challenge; E. coli, ATG codon 5' (possible initiator Met), 3' hexahistidine tag; also called DotBody 20A2.1) VHH: EVQLVESGGGLVQPGGSLRLSCAISGFPLADTDIDWVRQAPGKGLEWVARIFSSYGSTDYADSVKGRFTISADTSKNTVYLQMNSLRAEDTAVYYCGRSDSIAYNIILPASTYSSRDYRGQGTLVTVSS ) reads 0.00135 s⁻¹
